All figures here come from patent US8901119B2.

- TGT: Streptococcus pneumoniae PDF (Streptococcus pneumoniae serotype 4, UniProt Q9F2F0)
- Sequence (Q9F2F0 whole entry): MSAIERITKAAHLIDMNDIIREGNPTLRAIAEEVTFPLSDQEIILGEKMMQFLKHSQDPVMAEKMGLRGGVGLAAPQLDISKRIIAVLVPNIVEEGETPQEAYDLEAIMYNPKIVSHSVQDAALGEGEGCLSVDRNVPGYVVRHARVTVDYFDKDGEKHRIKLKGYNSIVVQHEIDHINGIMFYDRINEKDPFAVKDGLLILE
- ASSAY NAME: PDF IC50 Assay 1 (FDH-coupled, absorbance 340 nm)
- Format: biochemical
- ASSAY CONDITIONS: Assay 1 conditions; read-out: IC50, S. pneumoniae PDF activity
- Description: Enzymatic activity of PDF was measured using a formate dehydrogenase (FDH)-coupled assay [Lazennec and Meinnel (1997) Anal. Biochem. 244, 180-182]. Once formate is released from methionine by PDF, it is oxidized by FDH thereby reducing one molecule of NAD to NADH and resulting in an increase in absorbance at 340 nm. Reactions were initiated by adding PDF to microtiter plates containing all other reaction components and were continuously monitored for 20 min at 25° C. […]
pIC50: −log10 of the molar value.
Entries and their measured pIC50 follow.

Challenge: Suppose we examine the compound CCCCC[C@H](CN(O)C=O)C(=O)N1NCC[C@H]1C(=O)Nc1ccc(F)cn1 [Example 100] ; what pIC50 value has been reported?
Response given: ≥ 6.00

Then this compound:
Challenge: Dear colleague, I am looking for the recorded pIC50 of the following compound: O=CN(O)C[C@@H](CC1CCCC1)C(=O)N1NCC[C@H]1C(=O)Nc1ccncn1 [Example 59]
Response given: ≥ 6.00
